Overview of recorded melting point for various molecules
Attribute Measured: melting point

>>> print(df.to_string())
                                   molecule  observed_result
0  O=C(N/N=C/c1cccc(Cl)c1O)c1ccccc1C(F)(F)F [Example 432]    118 to 121 °C
1  CC/C(=N\NC(=O)c1cccc(Oc2ccccc2)c1)c1ccccc1O [Example 44]    148 to 163 °C
2  C/C(=N\NC(=O)c1ccccc1O)c1cc(Cl)cc(Cl)c1O [Example 471]    306 to 308 °C
3  O=C(N/N=C/c1cc(Br)ccc1O)c1ccc(C(F)(F)F)cc1 [Example 184]    219 to 222 °C
4  COc1cccc(/C(C)=N/NC(=O)c2ccccc2)c1O [Example 299]    146 to 148 °C
5  C/C(=N\NC(=O)c1ccc(C(F)(F)F)cc1)c1cc(Br)ccc1O [Example 518]    272 to 280 °C
6  COc1ccc(O)c(/C(C)=N/NC(=O)c2ccccc2)c1 [Example 261]    150 to 152 °C
7  O=C(N/N=C/c1c(F)ccc(F)c1O)c1ccccc1 [Example 244]    206 to 207 °C
8  Cc1cc(O)c(/C=N/NC(=O)c2ccccc2)cc1Cl [Example 239]    206 to 208 °C

====

# Test system: Leptosphaeria nodorum (LEPTNO)
# Method Summary: In vitro fungitoxicity of hydrazones with and without copper towards Leptosphaeria nodorum (Example 26)
# Assay type: cell-based
# Condition Info: Parastagonospora nodorum, 72 h, compound 0.05 μg/mL, copper-minus medium, 72 h at 25° C.; read-out: LEPTNO % Inhn. Minus Copper Observed
Attribute Measured: inhibition of growth at 0.05 µg/mL

>>> df
                            molecular_string  observed_result
 0      CC/C(=N\NC(=O)c1ccc(C)cc1C)c1ccccc1O               0%
 1  Cc1cc(C)cc(C(=O)N/N=C/c2cc(Cl)cc(Br)c2O)c1            13.3%
 2    O=C(N/N=C/c1cc(C(F)(F)F)ccc1O)c1ccccc1             1.9%
 3    O=C(N/N=C/c1cc(Cl)cc(Br)c1O)c1ccccc1Cl               7%
 4          CC/C(=N\NC(=O)c1ccccc1)c1ccccc1O             1.2%
 5  O=C(N/N=C/c1cc(Br)cc(Br)c1O)c1ccc(Cl)cc1            19.9%
 6  O=C(N/N=C/c1cc(Br)ccc1O)c1ccc(C(F)(F)F)cc1             7.1%
 7  O=C(N/N=C/c1cc(Cl)ccc1O)c1ccc([N+](=O)[O-])cc1             0.5%
 8        O=C(N/N=C/c1cc(Br)ccc1O)c1ccccc1Br             3.4%
 9  O=C(N/N=C/c1cc(Cl)cc(Cl)c1O)c1ccc(Br)cc1               0%
10  Cc1cc(C)cc(C(=O)N(/N=C/c2cc(Cl)cc(Cl)c2O)C(C)(C)C)c1               7%
11  C/C(=N\NC(=O)c1cccc(Br)c1)c1cc(Cl)cc(Cl)c1O               4%
12    COc1ccccc1C(=O)N/N=C/c1cc(Cl)cc(Cl)c1O               0%
13         Cc1ccccc1C(=O)N/N=C/c1cc(Br)ccc1O             6.2%
14  O=C(N/N=C/c1cccc([N+](=O)[O-])c1O)c1ccccc1             2.4%
15  C/C(=N\NC(=O)c1cccc([N+](=O)[O-])c1)c1ccccc1O             3.3%
16     COc1cccc(C(=O)N/N=C/c2cc(Br)ccc2O)c1C             5.8%
17           Cc1cccc(O)c1/C=N/NC(=O)c1ccccc1               0%
18    CC(C)(C)N(/N=C/c1ccccc1O)C(=O)c1ccccc1               0%
19  COc1cc(Br)cc(/C=N/NC(=O)c2cc(C)cc(C)c2)c1O            17.6%
